- Test system: Citrobacter diversus
- assay.overview: MIC against Gram-negative bacteria: Citrobacter diversus
- Assay type: cell-based
- stated.conditions: C. diversus; 10 h cultivation at 37° C.
assay.metric: MIC (mg/L)
Value expressed in mg/L; do not type the unit.

[ask] Which MIC is listed for PRT975 (LVDWCSRQPCQNGGRCVQTGAYCLCPPGWSGRLCD; listed as Homo sapiens) ?
[reply] 12.5

[ask] What value of measured MIC is listed for PRT930 (NFDDCASNPCIHGICMDGINRYSCVCSPGFTGQRCN; listed as Homo sapiens) ?
[reply] 25

[ask] Tell me the measured MIC of PRT1005 (LMDLCAQKPCPRNSHCLQTGPSFHCLCLQGWTGPLCN; listed as Homo sapiens) , please.
[reply] 25

[ask] Request the reported MIC associated with PRT964 (NIDDCASNPCTFGVCRDGINRYDCVCQPGFTGPLCN; listed as Homo sapiens)
[reply] 50

* * *

- System: Klebsiella pneumonia
- assay.overview: MIC against Gram-negative bacteria: Klebsiella pneumonia
- Type: cell-based
- stated.conditions: K. pneumonia; 10 h cultivation at 37° C.
I'd be grateful if you could share measured MIC for these entries.
Report as a plain number; the unit µg/mL is understood.

[ask] What MIC value was documented for this substance, PRT942 (LVNLCSRSPCKNKGTCVQKKAESQCLCPSGWAGAYCD; listed as Homo sapiens) ?
[reply] 50

[ask] Quick one: MIC for PRT907 (PSVSCEVAAQRQGVDVARLCQHGGLCVDAGNTHHCRCQAGYTGSYCE; listed as Homo sapiens) ?
[reply] 25

[ask] So what does the record say about MIC for PRT943 (PNVSCDIAASRRGVLVEHLCQHSGVCINAGNTHYCQCPLGYTGSYCE; listed as Homo sapiens) ?
[reply] 12.5

[ask] Can you look up the measured MIC of PRT996 (DIDECRSSPCANGGQCQDQPGAFHCKCLPGFEGPRCQ; listed as Homo sapiens) for me?
[reply] 12.5

[ask] Which MIC value is on record for PRT925 (DINECHSDPCQNDATCLDKIGGFTCLCMPGFKGVHCE; listed as Homo sapiens) ?
[reply] 12.5

[ask] Look up MIC: PRT902 (DIDDCRPNPCHNGGSCTDGINTAFCDCLPGFRGTFCE; listed as Homo sapiens)
[reply] 25

[ask] Quick one: MIC for PRT945 (QLDECASNPCQHGATCSDFIGGYRCECVPGYQGVNCE; listed as Homo sapiens) ?
[reply] 12.5

* * *

- Tested on: Proteus mirabilis
- assay.overview: MIC against Gram-negative bacteria: Proteus mirabilis
- Assay type: cell-based
- stated.conditions: 96-well plate, 5×10^5 CFU/mL, 37° C., 10 h
Please go through the items and note down their MIC P. mirabilis.

[ask] // MIC P. mirabilis lookup, key: PRT645 (EINECTVNPDICGAGHCINLPVRYTCICYEGYRFSEQQ; listed as Homo sapiens)
[reply] 12.5 µg/mL

[ask] Could you tell me which MIC P. mirabilis is on file for PRT730 (NGNSCSDFNGGCTHECVQEPFGAKCLCPLGFLLANDSKTCE; listed as Homo sapiens) ?
[reply] 50 µg/mL

[ask] Query: MIC P. mirabilis; subject: PRT697 (DVDECAQEPPPCGPGRCDNTAGSFHCACPAGFRSRGPGAPCQ; listed as Homo sapiens)
[reply] 12.5 µg/mL

[ask] What does the data say about its MIC P. mirabilis? Entry: PRT708 (QYYVCHHYCVNSESCTIGDDGSVECVCPTRYEGPKCE; listed as Homo sapiens)
[reply] 50 µg/mL

[ask] Any idea what its MIC P. mirabilis is? The substance is PRT619 (CNCQGGGACDPDTGDCYSGDENPDIECADCPIGFYNDPHDPRSCKP; listed as Homo sapiens)
[reply] 12.5 µg/mL

[ask] Data request, read-out MIC P. mirabilis, for PRT735 (GEENCNVNNGGCAQKCQMVRGAVQCTCHTGYRLTEDGHTCQ; listed as Homo sapiens)
[reply] 12.5 µg/mL

[ask] Requested read-out: MIC P. mirabilis. Entry: PRT685 (DVNECLEGDFCFPHGECLNTDGSFACTCAPGYRPGPRGASCL; listed as Homo sapiens)
[reply] 25 µg/mL

[ask] Name the reported MIC P. mirabilis value associated with the substance PRT723 (KERTCAENICEQNCTQLNEGGFICSCTAGFETNVFDRTSCL; listed as Homo sapiens)
[reply] 25 µg/mL
